Values from patent US20230117034A1

Molecular target: CDK12 (nuclear staining in CAL-120 cells) (Homo sapiens, UniProt Q9NYV4)
Construct: endogenous in cells; host or cells: CAL-120 human breast cancer cells (DSMZ ACC 459)
Sequence (Q9NYV4 whole entry): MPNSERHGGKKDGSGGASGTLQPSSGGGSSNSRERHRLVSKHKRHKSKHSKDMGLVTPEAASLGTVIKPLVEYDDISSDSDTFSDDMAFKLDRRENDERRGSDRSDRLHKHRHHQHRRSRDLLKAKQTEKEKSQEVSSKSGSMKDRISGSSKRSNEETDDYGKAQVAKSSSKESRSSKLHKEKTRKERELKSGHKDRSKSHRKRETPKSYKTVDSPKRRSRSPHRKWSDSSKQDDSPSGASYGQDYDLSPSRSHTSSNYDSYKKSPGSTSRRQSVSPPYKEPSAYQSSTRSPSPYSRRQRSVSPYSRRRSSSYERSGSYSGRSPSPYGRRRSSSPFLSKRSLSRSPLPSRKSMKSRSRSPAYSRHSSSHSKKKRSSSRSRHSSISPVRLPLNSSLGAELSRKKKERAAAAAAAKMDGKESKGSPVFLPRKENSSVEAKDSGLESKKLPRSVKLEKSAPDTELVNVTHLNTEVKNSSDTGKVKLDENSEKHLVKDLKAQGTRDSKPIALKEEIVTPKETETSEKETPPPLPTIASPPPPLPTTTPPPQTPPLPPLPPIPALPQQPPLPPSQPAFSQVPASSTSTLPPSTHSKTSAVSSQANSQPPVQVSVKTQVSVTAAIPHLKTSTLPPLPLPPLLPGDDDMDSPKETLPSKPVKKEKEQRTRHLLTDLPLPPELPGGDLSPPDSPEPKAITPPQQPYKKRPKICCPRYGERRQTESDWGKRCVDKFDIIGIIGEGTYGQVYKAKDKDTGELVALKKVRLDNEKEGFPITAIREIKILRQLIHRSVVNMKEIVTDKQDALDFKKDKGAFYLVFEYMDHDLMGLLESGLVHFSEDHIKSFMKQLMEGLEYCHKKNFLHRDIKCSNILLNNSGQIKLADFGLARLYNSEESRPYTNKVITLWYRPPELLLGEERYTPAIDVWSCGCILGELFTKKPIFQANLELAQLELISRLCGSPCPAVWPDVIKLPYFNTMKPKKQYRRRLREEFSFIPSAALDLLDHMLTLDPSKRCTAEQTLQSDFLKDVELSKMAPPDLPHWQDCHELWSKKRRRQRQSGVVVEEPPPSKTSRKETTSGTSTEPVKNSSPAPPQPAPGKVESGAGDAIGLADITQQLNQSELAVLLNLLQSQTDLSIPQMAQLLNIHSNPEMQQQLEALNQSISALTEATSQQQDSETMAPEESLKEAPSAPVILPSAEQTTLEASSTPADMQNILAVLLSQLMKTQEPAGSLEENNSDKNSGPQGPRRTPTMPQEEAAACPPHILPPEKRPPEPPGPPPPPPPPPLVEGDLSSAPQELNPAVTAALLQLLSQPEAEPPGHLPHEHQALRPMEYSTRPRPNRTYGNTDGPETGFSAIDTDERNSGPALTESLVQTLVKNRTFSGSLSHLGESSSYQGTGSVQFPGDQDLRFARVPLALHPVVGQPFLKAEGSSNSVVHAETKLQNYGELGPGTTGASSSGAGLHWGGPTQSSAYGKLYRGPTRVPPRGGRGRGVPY
Sequence (O75909 whole entry partner): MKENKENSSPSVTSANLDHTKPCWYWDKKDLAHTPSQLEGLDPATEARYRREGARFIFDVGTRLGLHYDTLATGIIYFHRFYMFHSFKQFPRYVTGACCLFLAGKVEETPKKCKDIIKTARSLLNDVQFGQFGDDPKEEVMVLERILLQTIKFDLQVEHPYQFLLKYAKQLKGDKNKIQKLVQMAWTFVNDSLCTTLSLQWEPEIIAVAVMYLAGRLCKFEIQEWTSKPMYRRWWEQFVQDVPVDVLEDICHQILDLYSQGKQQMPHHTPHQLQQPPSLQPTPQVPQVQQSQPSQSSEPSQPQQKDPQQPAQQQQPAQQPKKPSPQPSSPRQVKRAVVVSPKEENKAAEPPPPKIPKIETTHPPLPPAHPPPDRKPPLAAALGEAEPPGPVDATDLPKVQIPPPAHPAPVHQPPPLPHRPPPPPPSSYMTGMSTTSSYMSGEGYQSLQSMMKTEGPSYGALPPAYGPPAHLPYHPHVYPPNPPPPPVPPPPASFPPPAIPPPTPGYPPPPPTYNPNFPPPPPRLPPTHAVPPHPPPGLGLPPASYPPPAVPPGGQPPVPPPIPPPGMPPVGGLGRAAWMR
Test: CDK12 nuclear protein level: immunofluorescence/high content analysis (CAL-120)
Assay type: cell-based
Conditions: CAL-120 cells, 24 h, immunofluorescence; 50% reduction of nuclear CDK12 staining intensity; median; read-out: CDK12 degradation IF, DC50- [mol/l] (median)
Returns the class for an entry based on its DC50. Class ranges: LOW: < 2 nM; MEDIUM: ≥ 2 nM and < 20 nM; HIGH: ≥ 20 nM

Problem: Determine which band this molecule sits in: `CN1CC[C@@H]2CN(c3nc(NCc4nc5ccccc5[nH]4)n4ncc(Br)c4n3)C[C@@H]21`
Result: MEDIUM

Problem: Determine which band this molecule sits in: `CN(C)[C@@H]1CCN(c2nc(NCc3nc4ccccc4[nH]3)n3ncc(Br)c3n2)C1`
Result: HIGH

Problem: Determine which band this molecule sits in: `Cc1cnn2c(NCc3nc4c(F)c(F)ccc4[nH]3)nc(N3CCOCC3)nc12`
Result: MEDIUM

Problem: Determine which band this molecule sits in: `Cc1cccc2[nH]c(CNc3nc(N4CCN(C)CC4)nc4c(Br)cnn34)nc12`
Result: MEDIUM

Problem: Determine which band this molecule sits in: `Fc1ccc2[nH]c(CNc3nc(N4CCOCC4)nc4c(C5CC5)cnn34)nc2c1F`
Result: LOW

Problem: Determine which band this molecule sits in: `CN(CC(C)(C)O)c1nc(NCc2nc3c(F)c(Cl)ccc3[nH]2)n2ncc(Br)c2n1`
Result: LOW

Problem: Determine which band this molecule sits in: `CCc1cnn2c(NCc3nc4c(F)c(F)ccc4[nH]3)nc(N3CCOCC3)nc12`
Result: LOW

Problem: Determine which band this molecule sits in: `NCCCc1cccc2[nH]c(CNc3nc(N4CCOCC4)nc4c(Br)cnn34)nc12.O=CO`
Result: HIGH

Problem: Determine which band this molecule sits in: `C[C@H]1CCCCN1c1nc(NCc2nc3ccccc3[nH]2)n2ncc(Br)c2n1`
Result: MEDIUM

Problem: Determine which band this molecule sits in: `CN(CC(C)(C)O)c1nc(NCc2nc3cc(C(F)(F)F)ccc3[nH]2)n2ncc(C3CC3)c2n1`
Result: MEDIUM

Problem: Determine which band this molecule sits in: `CC(C)CNc1nc(NCc2nc3ccccc3[nH]2)n2ncc(Br)c2n1`
Result: HIGH

###

Biological target: CDK12 (nuclear staining in CAL-120 cells) (Homo sapiens, UniProt Q9NYV4)
Construct: endogenous in cells; host or cells: CAL-120 human breast cancer cells (DSMZ ACC 459)
Experiment: CDK12 nuclear protein level: immunofluorescence/high content analysis (CAL-120)
Assay type: cell-based
Conditions: ratio of IC50 CDK12 high ATP kinase assay to DC50 CDK12 degradation (IF, CAL-120)
Measure: (IC50 CDK12 high ATP) to (Degradation DC50 CDK12) ratio

Recorded (IC50 CDK12 high ATP) to (Degradation DC50 CDK12) ratio for CN1CCN(c2nc(NCc3nc4ccccc4[nH]3)n3ncc(-c4ccncc4)c3n2)CC1 [Example 242] on CDK12 (nuclear staining in CAL-120 cells) (Homo sapiens, UniProt Q9NYV4) was >188

Recorded (IC50 CDK12 high ATP) to (Degradation DC50 CDK12) ratio for CC(C)c1cnn2c(NCc3nc4ccccc4[nH]3)nc(Nc3ccccc3)nc12 [Example 13] on CDK12 (nuclear staining in CAL-120 cells) (Homo sapiens, UniProt Q9NYV4) was >457

Recorded (IC50 CDK12 high ATP) to (Degradation DC50 CDK12) ratio for Brc1cnn2c(NCc3nc4ccccc4[nH]3)nc(N3CCN(C4CC4)CC3)nc12 [Example 138] on CDK12 (nuclear staining in CAL-120 cells) (Homo sapiens, UniProt Q9NYV4) was >263

Recorded (IC50 CDK12 high ATP) to (Degradation DC50 CDK12) ratio for Fc1ccc2[nH]c(CNc3nc(N4CCOCC4)nc4c(C5CCCC5)cnn34)nc2c1F [Example 262] on CDK12 (nuclear staining in CAL-120 cells) (Homo sapiens, UniProt Q9NYV4) was >500

###

Give measured DC50 for each item. Keep answers brief.
Target: CYCLIN K (nuclear staining in CAL-120 cells) (Homo sapiens, UniProt O75909)
Construct: endogenous in cells; host or cells: CAL-120 human breast cancer cells (DSMZ ACC 459)
Sequence (O75909 whole entry): as the sequence (O75909 whole entry partner) above
Sequence (Q9NYV4 whole entry partner): as the sequence (Q9NYV4 whole entry) above
Assay: CYCLIN K nuclear protein level: immunofluorescence high content analysis (CAL-120)
Type: cell-based
Details: 24 h, 50% reduction of nuclear CCNK staining intensity, median, read-out: CYCLIN K degradation IF, DC50-[mol/l] (median)
Just the number in nM, nothing appended.

Recorded DC50 for `CN1CCN(c2nc(NCc3nc4cc(F)c(F)cc4[nH]3)n3ncc(Br)c3n2)CC1` on CYCLIN K (nuclear staining in CAL-120 cells) (Homo sapiens, UniProt O75909) was 0.149

Recorded DC50 for CC1CN(C)CCN1c1nc(NCc2nc3ccccc3[nH]2)n2ncc(Br)c2n1 (stereo not drawn) [Example 156] on CYCLIN K (nuclear staining in CAL-120 cells) (Homo sapiens, UniProt O75909) was 0.249

Recorded DC50 for `Fc1ccc2[nH]c(CNc3nc(N4CCOCC4)nc4c(C(F)(F)F)cnn34)nc2c1` on CYCLIN K (nuclear staining in CAL-120 cells) (Homo sapiens, UniProt O75909) was 0.66

Recorded DC50 for `c1ccc(-c2nnc(CNc3nc(N4CCOCC4)nc4c(C5CC5)cnn34)[nH]2)cc1` on CYCLIN K (nuclear staining in CAL-120 cells) (Homo sapiens, UniProt O75909) was 17.3

Recorded DC50 for `Cc1cnn2c(NCc3nc4c(F)c(F)ccc4[nH]3)nc(N(C)CC(C)(C)O)nc12` on CYCLIN K (nuclear staining in CAL-120 cells) (Homo sapiens, UniProt O75909) was 0.884

Recorded DC50 for `CN1CCN(c2nc(NCc3nc4cc(F)ccc4[nH]3)n3ncc(Br)c3n2)CC1` on CYCLIN K (nuclear staining in CAL-120 cells) (Homo sapiens, UniProt O75909) was 0.172

###

Biological target: CDK12 (nuclear staining in CAL-120 cells) (Homo sapiens, UniProt Q9NYV4)
Construct: endogenous in cells; host or cells: CAL-120 human breast cancer cells (DSMZ ACC 459)
Assay: CDK12 nuclear protein level: immunofluorescence/high content analysis (CAL-120)
Format: cell-based
Settings: ratio of IC50 CDK12 high ATP kinase assay to DC50 CDK12 degradation (IF, CAL-120)
Measure: (IC50 CDK12 high ATP) to (Degradation DC50 CDK12) ratio

GET /value?item= `COc1cccc2[nH]c(CNc3nc(N4CCOCC4)nc4c(-c5nccs5)cnn34)nc12` &field=(IC50 CDK12 high ATP) to (Degradation DC50 CDK12) ratio returns >176

GET /value?item= `Cc1cnn2c(NCc3nc4ccccc4[nH]3)nc(N3CCOCC3)nc12` &field=(IC50 CDK12 high ATP) to (Degradation DC50 CDK12) ratio returns >897

GET /value?item= `CCNc1nc(NCc2ncc(-c3ccccc3)[nH]2)n2ncc(C(C)C)c2n1` &field=(IC50 CDK12 high ATP) to (Degradation DC50 CDK12) ratio returns >449

GET /value?item= `Fc1ccccc1-c1cnn2c(NCc3nc4ccccc4[nH]3)nc(N3CCOCC3)nc12` &field=(IC50 CDK12 high ATP) to (Degradation DC50 CDK12) ratio returns >584

###

Tested on: CAL-120, human breast adenocarcinoma cells
Test: Proliferation assay CAL-120 (crystal violet, 4 days)
Format: cell-based
Settings: Homo sapiens, CAL-120, 96 h, CAL-120 cells, median, read-out: Prolif-CAL-120, IC50-[mol/l] (median)
Measure: IC50 (nM)
Just the number in nM, nothing appended.

GET /value?item= FC(F)(F)c1cccc(-c2nnc(CNc3nc(N4CCOCC4)nc4c(Br)cnn34)[nH]2)c1 [Example 52] &field=IC50 returns 23.3

GET /value?item= CN(CC(C)(C)O)c1nc(NCc2nc3ccccc3[nH]2)n2ncc(Br)c2n1 [Example 238] &field=IC50 returns 36.3

GET /value?item= COc1ccc2[nH]c(CNc3nc(N4CCN(C)CC4)nc4c(Br)cnn34)nc2c1 [Example 161] &field=IC50 returns 3.3

GET /value?item= FC(F)(F)Oc1ccc2[nH]c(CNc3nc(N4C[C@H]5CC[C@@H](C4)N5)nc4c(Br)cnn34)nc2c1 [Example 382] &field=IC50 returns 12.4

###

Molecular target: CDK2/CycE (Homo sapiens, UniProt P24941)
Assay: CDK2/CycE kinase assay (TR-FRET, 2 mM ATP)
Details: 2 mM ATP (high ATP); median; read-out: CDK2/CyclinE, 2 mM ATP (high ATP), IC50 (median)
Method: CDK2/CycE-inhibitory activity of compounds of the present invention was quantified employing the CDK2/CycE TR-FRET assay as described in the following paragraphs. […] The resulting mixture was incubated 1 h at 22° C. to allow the formation of complex between the phosphorylated biotinylated peptide and the detection reagents. Subsequently the amount of phosphorylated substrate was evaluated by measurement of the resonance energy transfer from the Eu-chelate to the streptavidine-XL. […]
pIC50: −log10 of the molar value.
Give measured pIC50 for each item. Keep answers brief.

Recorded pIC50 for CN1C2CCC1CN(c1nc(NCc3nc4c(F)cccc4[nH]3)n3ncc(C(F)(F)F)c3n1)C2 [Example 384] on CDK2/CycE (Homo sapiens, UniProt P24941) was < 4.70

Recorded pIC50 for NCCOCCOCCNc1nc(NCc2nc3ccccc3[nH]2)n2ncc(Br)c2n1 [Example 412] on CDK2/CycE (Homo sapiens, UniProt P24941) was < 4.70

Recorded pIC50 for COc1cccc2nc(CNc3nc(N4CCOCC4)nc4c(-c5ccnnc5)cnn34)[nH]c12.O=C(O)C(F)(F)F [Example 439] on CDK2/CycE (Homo sapiens, UniProt P24941) was < 4.70
